Conditions: in n-butanol, 318.15 K
property: solubility (mole fraction)
Form rule: numeric answer, no unit written next to it.

INPUT: Identify the reported solubility (mole fraction) for the following entry. C#C[C@]1(O)CC[C@H]2[C@@H]3CCC4=CC(=O)CC[C@@H]4[C@H]3C(=C)C[C@@]21CC
OUTPUT: 0.0198

----------
Conditions: in acetone, 288.15 K
property: solubility (mole fraction)
Form rule: numeric answer, no unit written next to it.

INPUT: Identify the reported solubility (mole fraction) for the following entry. C#C[C@]1(O)CC[C@H]2[C@@H]3CCC4=CC(=O)CC[C@@H]4[C@H]3C(=C)C[C@@]21CC
OUTPUT: 0.0165
